- System name: single-chain tethered dimer of HIV protease (Human immunodeficiency virus 1, UniProt P04585)
- Experiment notes: biochemical
- Format: biochemical
- Design: fused on or other part: A second copy of the same protease unit is joined to the first by a short peptide tether, giving one polypeptide
- Experimental context: read-out: HPLC Ki; Table 2q
Reported Ki values for a set of compounds

[
  {
    "Compound": "OC1C(O)C(Cc2ccccc2)N(Cc2ccccc2)C(=S)N(Cc2ccccc2)C1Cc1ccccc1 (centres unmarked) [Example 27A]",
    "Ki": "< 10 nM"
  },
  {
    "Compound": "OC1C(O)C(Cc2ccccc2)N(CC2CC2)C(=S)N(CC2CC2)C1Cc1ccccc1 (centres unmarked) [Example 27B]",
    "Ki": "< 10 nM"
  }
]

---

- System name: single-chain tethered dimer of HIV protease (Human immunodeficiency virus 1, UniProt P04585)
- Experiment notes: biochemical
- Format: biochemical
- Design: fused on or other part: A second copy of the same protease unit is joined to the first by a short peptide tether, giving one polypeptide
- Experimental context: Table 2d; class symbols; read-out: HPLC K1
Assay metric: Ki

[
  {
    "Compound": "O=C1NC(Cc2ccccc2)C(O)C(O)C(Cc2ccccc2)N1CC1CC1CCCO (stereo not shown) [Example 13A]",
    "Observed value": "10 to 1000 nM"
  },
  {
    "Compound": "O=C(NC(Cc1ccccc1)C(=O)Nc1cccc(CN2C(=O)N(Cc3cccc(NC(=O)C(Cc4ccccc4)NC(=O)OCc4ccccc4)c3)C(Cc3ccccc3)C(O)C(O)C2Cc2ccccc2)c1)OCc1ccccc1 (stereo not shown) [15T]",
    "Observed value": "< 10 nM"
  },
  {
    "Compound": "CC(N)C(=O)Nc1cccc(CN2C(=O)N(Cc3cccc(NC(=O)C(C)N)c3)C(Cc3ccccc3)C(O)C(O)C2Cc2ccccc2)c1 (stereo not shown) [15U]",
    "Observed value": "< 10 nM"
  },
  {
    "Compound": "NC(=O)Sc1cccc(CN2C(=O)N(Cc3cccc(SC(N)=O)c3)C(Cc3ccccc3)C(O)C(O)C2Cc2ccccc2)c1 (stereo not shown) [Example 12Q]",
    "Observed value": "< 10 nM"
  },
  {
    "Compound": "CN(C)CC(=O)Nc1cccc(CN2C(=O)N(Cc3cccc(NC(=O)CN(C)C)c3)C(Cc3ccccc3)C(O)C(O)C2Cc2ccccc2)c1.Cl.Cl (stereo not shown) [15N]",
    "Observed value": "< 10 nM"
  },
  {
    "Compound": "NNC(=O)c1ccc(CN2C(=O)N(Cc3cccc(C(=O)NN)c3)C(Cc3ccccc3)C(O)C(O)C2Cc2ccccc2)cc1 (stereo not shown) [10N]",
    "Observed value": "< 10 nM"
  },
  {
    "Compound": "CNCC(=O)Nc1cccc(CN2C(=O)N(Cc3cccc(NC(=O)CNC)c3)C(Cc3ccccc3)C(O)C(O)C2Cc2ccccc2)c1.Cl.Cl (stereo not shown) [15O]",
    "Observed value": "< 10 nM"
  },
  {
    "Compound": "CCOC(=O)c1cccc(CN2C(=O)N(Cc3cccc(C(=O)OCC)c3)C(Cc3ccccc3)C(O)C(O)C2Cc2ccccc2)c1 (stereo not shown) [10W]",
    "Observed value": "< 10 nM"
  },
  {
    "Compound": "O=C1NC(Cc2ccccc2)C(O)C(O)C(Cc2ccccc2)N1CC1CC1CCO (stereo not shown) [Example 12Z]",
    "Observed value": "10 to 1000 nM"
  },
  {
    "Compound": "O=C1N(CC2CC2)C(Cc2ccccc2)C(O)C(O)C(Cc2ccccc2)N1CC1CC1 (stereo not shown) [Example 13J]",
    "Observed value": "< 10 nM"
  },
  {
    "Compound": "O=C1N(Cc2cnccc2Cl)C(Cc2ccccc2)C(O)C(O)C(Cc2ccccc2)N1Cc1cnccc1Cl (stereo not shown) [Example 13Z]",
    "Observed value": "10 to 1000 nM"
  },
  {
    "Compound": "O=C1N(CC2CC2(c2ccccc2)c2ccccc2)C(Cc2ccccc2)C(O)C(O)C(Cc2ccccc2)N1CC1CC1(c1ccccc1)c1ccccc1 (stereo not shown) [Example 14F]",
    "Observed value": "10 to 1000 nM"
  },
  {
    "Compound": "CN(C)C(=O)c1cccc(CN2C(=O)N(Cc3cccc(C(=O)N(C)C)c3)C(Cc3ccccc3)C(O)C(O)C2Cc2ccccc2)c1 (stereo not shown) [11S]",
    "Observed value": "10 to 1000 nM"
  },
  {
    "Compound": "O=C1N(Cc2nccs2)C(Cc2ccccc2)C(O)C(O)C(Cc2ccccc2)N1Cc1nccs1 (stereo not shown) [Example 13V]",
    "Observed value": "10 to 1000 nM"
  },
  {
    "Compound": "O=C1N(Cc2cccc(OCC(O)CO)c2)C(Cc2ccccc2)C(O)C(O)C(Cc2ccccc2)N1Cc1cccc(OCC(O)CO)c1 (stereo not shown) [10T]",
    "Observed value": "< 10 nM"
  },
  {
    "Compound": "Cc1cccc(CN2C(=O)N(Cc3cccc(O)c3)C(Cc3ccccc3)C(O)C(O)C2Cc2ccccc2)c1 (stereo not shown) [10J]",
    "Observed value": "< 10 nM"
  },
  {
    "Compound": "Cc1cncc(OCc2ccccc2)c1CN1C(=O)N(Cc2c(C)cncc2OCc2ccccc2)C(Cc2ccccc2)C(O)C(O)C1Cc1ccccc1 (stereo not shown) [Example 14J]",
    "Observed value": "10 to 1000 nM"
  },
  {
    "Compound": "O=C1NC(Cc2ccccc2)C(O)C(O)C(Cc2ccccc2)N1CC1CCC(=NO)CC1 (stereo not shown) [Example 15VC]",
    "Observed value": "10 to 1000 nM"
  },
  {
    "Compound": "O=C1NC(Cc2ccccc2)C(O)C(O)C(Cc2ccccc2)N1 (stereo not shown) [Example 13P]",
    "Observed value": "> 1000 nM"
  },
  {
    "Compound": "O=C1N(CC2CC2CO)C(Cc2ccccc2)C(O)C(O)C(Cc2ccccc2)N1CC1CC1CO (stereo not shown) [Example 12L]",
    "Observed value": "> 1000 nM"
  },
  {
    "Compound": "COC(=O)CCCCCN1C(=O)N(CCCCCC(=O)O)C(Cc2ccccc2)C(O)C(O)C1Cc1ccccc1 (stereo not shown) [Example 12I]",
    "Observed value": "< 10 nM"
  },
  {
    "Compound": "O=C1N(Cc2cccc(C=NCCO)c2)C(Cc2ccccc2)C(O)C(O)C(Cc2ccccc2)N1Cc1cccc(C2NCCO2)c1 (stereo not shown) [Example 9K]",
    "Observed value": "10 to 1000 nM"
  },
  {
    "Compound": "C=CCN1C(=O)N(CC=C)C(Cc2ccccc2)C(O)C(O)C1Cc1ccccc1 (stereo not shown) [Example 13K]",
    "Observed value": "< 10 nM"
  },
  {
    "Compound": "O=C1N(Cc2cccc(CNOCc3ccccc3)c2)C(Cc2ccccc2)C(O)C(O)C(Cc2ccccc2)N1Cc1cccc(CNOCc2ccccc2)c1 (stereo not shown) [Example 9F]",
    "Observed value": "10 to 1000 nM"
  },
  {
    "Compound": "O=C1N(Cc2ccc3c(c2)CCNC3)C(Cc2ccccc2)C(O)C(O)C(Cc2ccccc2)N1Cc1ccc2c(c1)CCNC2 (stereo not shown) [Example 13T]",
    "Observed value": "10 to 1000 nM"
  },
  {
    "Compound": "NC(Cc1ccccc1)C(=O)Nc1cccc(CN2C(=O)N(Cc3cccc(NC(=O)C(N)Cc4ccccc4)c3)C(Cc3ccccc3)C(O)C(O)C2Cc2ccccc2)c1 (stereo not shown) [15V]",
    "Observed value": "< 10 nM"
  },
  {
    "Compound": "O=C1N(CC2CC2c2ccccc2)C(Cc2ccccc2)C(O)C(O)C(Cc2ccccc2)N1CC1CC1c1ccccc1 (stereo not shown) [Example 14H]",
    "Observed value": "10 to 1000 nM"
  },
  {
    "Compound": "NC(=O)COc1cccc(CN2C(=O)N(Cc3cccc(OCC(N)=O)c3)C(Cc3ccccc3)C(O)C(O)C2Cc2ccccc2)c1 (stereo not shown) [10H]",
    "Observed value": "< 10 nM"
  }
]

---

Reported pKi values for a set of molecules
- System name: single-chain tethered dimer of HIV protease (Human immunodeficiency virus 1, UniProt P04585)
- Experiment notes: biochemical
- Type: biochemical
- Design: fused on or other part: A second copy of the same protease unit is joined to the first by a short peptide tether, giving one polypeptide
- Experimental context: Table 2m; read-out: HPLC Ki
pKi: −log10 of the molar value.

[
  {
    "Molecule": "C=CCN1C(Cc2ccccc2)C(O)C(O)C(Cc2ccccc2)N(CC=C)S1(=O)=O (centres unmarked) [23E]",
    "pKi": "6.00 to 8.00"
  },
  {
    "Molecule": "O=S1(=O)N(Cc2ccc(OCc3ccccc3)cc2)C(Cc2ccccc2)C(O)C(O)C(Cc2ccccc2)N1Cc1ccc(OCc2ccccc2)cc1 (centres unmarked) [23J]",
    "pKi": "< 6.00"
  },
  {
    "Molecule": "O=S1(=O)N(Cc2cccc(CO)c2)C(Cc2ccccc2)C(O)C(O)C(Cc2ccccc2)N1Cc1cccc(CO)c1 (centres unmarked) [23N]",
    "pKi": "> 8.00"
  },
  {
    "Molecule": "O=S1(=O)N(CCCCCO)C(Cc2ccccc2)C(O)C(O)C(Cc2ccccc2)N1Cc1ccc2ccccc2c1 (centres unmarked) [23AF]",
    "pKi": "> 8.00"
  },
  {
    "Molecule": "CCCN1C(Cc2ccccc2)C(O)C(O)C(Cc2ccccc2)N(CCC)S1(=O)=O (centres unmarked) [23X]",
    "pKi": "> 8.00"
  },
  {
    "Molecule": "O=S1(=O)N(Cc2cccc(O)c2)C(Cc2ccccc2)C(O)C(O)C(Cc2ccccc2)N1Cc1cccc(O)c1 (centres unmarked) [Example 23D]",
    "pKi": "> 8.00"
  },
  {
    "Molecule": "O=S1(=O)NC(Cc2ccccc2)C(O)C(O)C(Cc2ccccc2)N1CCCCCO (centres unmarked) [23AE]",
    "pKi": "6.00 to 8.00"
  },
  {
    "Molecule": "CC(=O)c1cccc(CN2C(Cc3ccccc3)C(O)C(O)C(Cc3ccccc3)N(Cc3cccc(C(C)=O)c3)S2(=O)=O)c1 (centres unmarked) [23T]",
    "pKi": "> 8.00"
  }
]

Taken from patent USRE37781E1.
